TEST SYSTEM: Adenosine receptor A2a (Homo sapiens)
ASSAY SUMMARY: G-protein activation in human Adenosine A2A receptor expressed in CHO cells using cAMP assay
Give measured EC50 for each item. Keep answers brief.
Dear colleague, please return just the value in µM, with no unit written.

INPUT: What value of EC50 has been recorded for this entry: CCSC[C@H]1O[C@@H](n2cnc3c(N)nc(N/N=C/CC(C)C)nc32)[C@H](O)[C@@H]1O
OUTPUT: 7.5

INPUT: Also CCCCC#Cc1nc(N)c2ncn([C@@H]3O[C@H](CSC)[C@@H](O)[C@H]3O)c2n1 , if possible.
OUTPUT: 0.7

INPUT: Also CC(C)C/C=N/Nc1nc(N)c2ncn([C@@H]3O[C@H](CO)[C@@H](O)[C@H]3O)c2n1 , if possible.
OUTPUT: 1.1

INPUT: Also CCCCC#Cc1nc(N)c2ncn([C@@H]3O[C@H](CSCCC)[C@@H](O)[C@H]3O)c2n1 , if possible.
OUTPUT: 0.8

INPUT: Also CSC[C@H]1O[C@@H](n2cnc3c(N)nc(N/N=C/CC(C)C)nc32)[C@H](O)[C@@H]1O , if possible.
OUTPUT: 5

----------
TEST SYSTEM: Adenosine receptor A2a (Rattus norvegicus, UniProt P30543)
Sequence (P30543 whole entry): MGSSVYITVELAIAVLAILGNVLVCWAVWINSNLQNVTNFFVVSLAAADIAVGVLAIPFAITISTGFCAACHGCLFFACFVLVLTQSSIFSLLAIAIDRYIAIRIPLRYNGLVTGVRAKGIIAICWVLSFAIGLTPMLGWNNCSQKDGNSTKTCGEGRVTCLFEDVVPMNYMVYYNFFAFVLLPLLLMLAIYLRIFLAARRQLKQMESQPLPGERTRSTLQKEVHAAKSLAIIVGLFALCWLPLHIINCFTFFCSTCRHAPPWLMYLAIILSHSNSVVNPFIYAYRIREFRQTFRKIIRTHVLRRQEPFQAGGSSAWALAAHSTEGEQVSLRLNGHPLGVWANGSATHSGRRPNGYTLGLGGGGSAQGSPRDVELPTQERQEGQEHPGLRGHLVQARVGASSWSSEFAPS
pKi: −log10 of the molar value.
We use 7 as the dividing line for pKi: on or above the line is 1, below is -1.

INPUT: Exam item: decide whether the reported pKi for CCSC[C@H]1O[C@@H](n2cnc3c(N)nc(N/N=C/CC(C)C)nc32)[C@H](O)[C@@H]1O is at least 7.
OUTPUT: -1

INPUT: Also CC(C)C/C=N/Nc1nc(N)c2ncn([C@@H]3O[C@H](CSC(C)C)[C@@H](O)[C@H]3O)c2n1 , if possible.
OUTPUT: -1

INPUT: Also CCCCC#Cc1nc(N)c2ncn([C@@H]3O[C@H](CSCCC)[C@@H](O)[C@H]3O)c2n1 , if possible.
OUTPUT: -1

INPUT: Also CC(C)C/C=N/Nc1nc(N)c2ncn([C@@H]3O[C@H](CO)[C@@H](O)[C@H]3O)c2n1 , if possible.
OUTPUT: 1

INPUT: Also CC(C)SC[C@H]1O[C@@H](n2cnc3c(N)nc(I)nc32)[C@H](O)[C@@H]1O , if possible.
OUTPUT: -1

INPUT: Also CCSC[C@H]1O[C@@H](n2cnc3c(N)nc(I)nc32)[C@H](O)[C@@H]1O , if possible.
OUTPUT: -1

----------
TEST SYSTEM: Adenosine receptor A1 (Rattus norvegicus) (UniProt P25099)
Sequence (whole entry): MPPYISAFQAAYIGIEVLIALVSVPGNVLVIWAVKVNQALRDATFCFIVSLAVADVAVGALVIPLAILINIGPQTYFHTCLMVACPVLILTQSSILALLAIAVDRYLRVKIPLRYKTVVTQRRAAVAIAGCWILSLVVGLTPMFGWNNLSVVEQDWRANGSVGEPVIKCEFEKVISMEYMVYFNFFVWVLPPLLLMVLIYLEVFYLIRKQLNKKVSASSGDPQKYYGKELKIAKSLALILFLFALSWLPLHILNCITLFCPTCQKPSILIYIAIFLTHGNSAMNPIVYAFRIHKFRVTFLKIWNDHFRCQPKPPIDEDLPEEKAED
ASSAY SUMMARY: Ability to displace [3H]DPCPX from Adenosine A1 receptor in rat cortical membrane at 10e-5 M
Type: cell membranes
QUANTITY: Displacement (%)
Dear colleague, please return just the value in %, with no unit written.

INPUT: What value of Displacement has been recorded for this entry: CSC[C@H]1O[C@@H](n2cnc3c(N)nc(N/N=C/CC(C)C)nc32)[C@H](O)[C@@H]1O
OUTPUT: 18.9

INPUT: Also CCSC[C@H]1O[C@@H](n2cnc3c(N)nc(N/N=C/CC(C)C)nc32)[C@H](O)[C@@H]1O , if possible.
OUTPUT: 21.2

INPUT: Also Nc1nc(I)nc2c1ncn2[C@@H]1O[C@H](CO)[C@@H](O)[C@H]1O , if possible.
OUTPUT: 36.1

INPUT: Also CC(C)C/C=N/Nc1nc(N)c2ncn([C@@H]3O[C@H](CO)[C@@H](O)[C@H]3O)c2n1 , if possible.
OUTPUT: 18.9

INPUT: Also CC(C)SC[C@H]1O[C@@H](n2cnc3c(N)nc(I)nc32)[C@H](O)[C@@H]1O , if possible.
OUTPUT: 56.2

INPUT: Also CCCSC[C@H]1O[C@@H](n2cnc3c(N)nc(N/N=C/CC(C)C)nc32)[C@H](O)[C@@H]1O , if possible.
OUTPUT: 22

----------
Lab note: Ki readings collected with Adenosine receptor A1 (Rattus norvegicus, UniProt P25099) for the following compounds.

INPUT: Recall the recorded Ki for CCCSC[C@H]1O[C@@H](n2cnc3c(N)nc(I)nc32)[C@H](O)[C@@H]1O with Adenosine receptor A1 (Rattus norvegicus, UniProt P25099) and state it.
OUTPUT: 1050 nM

INPUT: Also CCSC[C@H]1O[C@@H](n2cnc3c(N)nc(I)nc32)[C@H](O)[C@@H]1O , if possible.
OUTPUT: 386 nM

INPUT: Also CCCCC#Cc1nc(N)c2ncn([C@@H]3O[C@H](CSC(C)C)[C@@H](O)[C@H]3O)c2n1 , if possible.
OUTPUT: 1270 nM

INPUT: Also CCCCC#Cc1nc(N)c2ncn([C@@H]3O[C@H](CSCC)[C@@H](O)[C@H]3O)c2n1 , if possible.
OUTPUT: 2180 nM

----------
TEST SYSTEM: Adenosine receptor A2a (Homo sapiens, UniProt P29274)
Sequence (P29274 whole entry): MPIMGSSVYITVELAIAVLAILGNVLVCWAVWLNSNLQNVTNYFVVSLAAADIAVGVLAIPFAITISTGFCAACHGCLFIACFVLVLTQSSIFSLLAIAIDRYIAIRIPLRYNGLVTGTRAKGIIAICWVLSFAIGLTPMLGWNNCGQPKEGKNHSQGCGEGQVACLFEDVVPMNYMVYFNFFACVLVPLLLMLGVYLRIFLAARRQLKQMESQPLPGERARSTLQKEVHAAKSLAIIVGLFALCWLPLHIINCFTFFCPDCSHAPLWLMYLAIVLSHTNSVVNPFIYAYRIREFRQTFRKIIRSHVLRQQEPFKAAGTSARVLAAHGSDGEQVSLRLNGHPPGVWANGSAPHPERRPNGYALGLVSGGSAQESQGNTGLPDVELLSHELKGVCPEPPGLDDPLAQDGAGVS
ASSAY SUMMARY: G-protein activation in human Adenosine A2A receptor expressed in CHO cells using cAMP assay
QUANTITY: pEC50
Expect pEC50 as a plain number equal to -log10 of the molar concentration.

INPUT: Recall the recorded pEC50 for CCCCC#Cc1nc(N)c2ncn([C@@H]3O[C@H](CSCC)[C@@H](O)[C@H]3O)c2n1 with Adenosine receptor A2a (Homo sapiens, UniProt P29274) and state it.
OUTPUT: 6.30

INPUT: Also CCCSC[C@H]1O[C@@H](n2cnc3c(N)nc(N/N=C/CC(C)C)nc32)[C@H](O)[C@@H]1O , if possible.
OUTPUT: 4.89

INPUT: Also CC(C)C/C=N/Nc1nc(N)c2ncn([C@@H]3O[C@H](CSC(C)C)[C@@H](O)[C@H]3O)c2n1 , if possible.
OUTPUT: 4.98

INPUT: Also CCCCC#Cc1nc(N)c2ncn([C@@H]3O[C@H](CSC(C)C)[C@@H](O)[C@H]3O)c2n1 , if possible.
OUTPUT: 5.44

Entry source: ChEMBL document CHEMBL1135807
